# Measured Target: AgKv2.1 (voltage-gated potassium channel Kv2.1) (Anopheles gambiae)
# Construct: gene 1274312
# Sequence (Q5TT67 1-1014): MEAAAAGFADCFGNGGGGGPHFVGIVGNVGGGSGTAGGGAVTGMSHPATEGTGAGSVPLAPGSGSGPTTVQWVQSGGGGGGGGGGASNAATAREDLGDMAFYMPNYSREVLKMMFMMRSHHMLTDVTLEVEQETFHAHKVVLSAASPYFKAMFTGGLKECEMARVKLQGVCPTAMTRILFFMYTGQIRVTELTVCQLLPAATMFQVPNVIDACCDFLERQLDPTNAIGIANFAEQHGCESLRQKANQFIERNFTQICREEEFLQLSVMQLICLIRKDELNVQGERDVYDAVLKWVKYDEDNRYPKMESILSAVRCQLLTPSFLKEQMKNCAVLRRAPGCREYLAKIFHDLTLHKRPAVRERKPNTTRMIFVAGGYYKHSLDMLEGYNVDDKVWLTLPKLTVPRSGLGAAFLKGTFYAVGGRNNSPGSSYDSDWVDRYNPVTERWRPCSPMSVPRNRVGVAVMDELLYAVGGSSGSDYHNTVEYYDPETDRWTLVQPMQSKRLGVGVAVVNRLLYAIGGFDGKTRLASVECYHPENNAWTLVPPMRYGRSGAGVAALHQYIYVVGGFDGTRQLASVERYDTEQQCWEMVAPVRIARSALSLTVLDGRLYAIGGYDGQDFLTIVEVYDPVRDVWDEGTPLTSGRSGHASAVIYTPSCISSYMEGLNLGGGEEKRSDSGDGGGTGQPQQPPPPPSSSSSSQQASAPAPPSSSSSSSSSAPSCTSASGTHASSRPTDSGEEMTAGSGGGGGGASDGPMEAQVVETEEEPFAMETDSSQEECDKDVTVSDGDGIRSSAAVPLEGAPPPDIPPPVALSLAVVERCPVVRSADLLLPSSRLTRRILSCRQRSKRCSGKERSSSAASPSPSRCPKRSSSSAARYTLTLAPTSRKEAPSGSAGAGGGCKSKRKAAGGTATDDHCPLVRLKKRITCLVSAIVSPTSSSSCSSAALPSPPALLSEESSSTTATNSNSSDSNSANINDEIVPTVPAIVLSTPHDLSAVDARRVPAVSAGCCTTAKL
# Assay Comment: whole-cell patch-clamp of HEK-293 cells expressing AgKv2.[…], current inhibition at +[…] mV
# Assay type: cell-based
Readout: IC50 (nM)
Answers are plain numbers, in nM.

INPUT: Name the recorded IC50 for `CCCCCCCCCC(=O)O` .
OUTPUT: 610

Data origin, for the record: paper PMC6315728
